tgt: free FIXa (activated Factor IX) (UniProt P00740 47-191; P00740 227-461)
assay explanation: BLI
// reported pKd per item
Kindly note that pKd refers to -log10 of the concentration in mol/L and answer with the value alone.

These solved cases illustrate the format of a correct answer.
BIIB-9-1271 (antibody, V domains shown) VH: QVQLVQSGAEVKKPGASVKVSCKASGYTFTSYYMHWVRQAPGQGLEWMGIINPSGGSTSYAQKFQGRVTMTRDTSTSTVYMELSSLRSEDTAVYYCARDTGGYAFDIWGQGTLVTVSS VL: EIVMTQSPATLSVSPGERATLSCRASQSVSSNLAWYQQKPGQAPRLLIYGASTRATGIPARFSGSGSGTDFTLTISSLQPEDFATYYCQQGFSFPFTFGGGTKVEIK: 7.35
BIIB-9-558 (antibody, V domains shown) VH: EVQLVESGGGLVKPGGSLRLSCAASGFTFSSYSMNWVRQAPGKGLEWVSSISSSSSYIYYADSVKGRFTISRDNAKNSLYLQMNSLRAEDTAVYYCARSYGYGYHDFDLWGRGTLVTVSS VL: DIQMTQSPSTLSASVGDRVTITCRASQSIGSWLAWYQQKPGKAPKLLIYKASSLESGVPSRFSGSGSGTEFTLTISSLQPDDFATYYCQQAGSYSFTFGGGTKVEIK: 8.96

Let us move to another entry and its pKd.
So for BIIB-9-569 (antibody, V domains shown) VH: QVQLVQSGAEVKKPGASVKVSCKASGYTFTSYYMHWVRQAPGQGLEWMGIINPSGGSTSYAQKFQGRVTMTRDTSTSTVYMELSSLRSEDTAVYYCARDGSGYSPYSFDPWGQGTLVTVSS VL: DIQMTQSPSSLSASVGDRVTITCQASQDISNYLNWYQQKPGKAPKLLIYDASNLATGVPSRFSGSGSGTDFTFTISSLQPEDIATYYCQQADDFPFTFGGGTKVEIK , the logged pKd turned out to be 8.15
